PROTOCOL DETAILS: protein stability index of a GFP-peptide fusion (GPS, HEK-293T) (PSI 1-6); higher = more stable;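 note: 24-mer peptide tiles fused after GFP, lentivirally expressed, FACS-sorted into six equal bins by GFP/DsRed ratio, decoded by Illumina sequencing, PSI is the read-weighted mean bin number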
RECORDED CONDITIONS: treatment: MLN4924 1 uM, 8 h; c terminus: a fixed tail appended
Entries annotated with measured protein stability index

Some entries whose results are on file:
ITEM SEQUENCE	protein stability index
VAGGLVACRVTELQQQPLCTSVNT [LRRC59]	2.59
RMTISLTVILIESTNEITYGLPIM [CLCN6]	3.06
EDRLSLKFLPSSEEDNDDAKILPS [DRICH1]	5.33
ILTEETEVKGTLEGDVCGVEPPGP [PBXIP1]	5.42
EPSLKATMGLAGRARVKEKFSPEA [ALG2]	4.94
VKHQCCPGCGYFCTAGNFMECQPE [EHMT1]	3.31

// query protein stability index value for entry PIFQDSQDTEVFSWSDNERSSSRI [FAM104B]
4.41

// query protein stability index value for entry MSTFRQEDVEDHYEMGEELGSGQF [DAPK3]
5.33

// query protein stability index value for entry NNLEPILEGYISNLRKQLETLSGD [KRT71]
3.18

// query protein stability index value for entry FCGATIAGLSLLSPSVMRLVHTQE [ALKBH7]
2.71

// query protein stability index value for entry LPPKVGSFQLFVEGYKDADYWLRR [PI4K2A]
2.46

// query protein stability index value for entry LMVHGNERFIQYLASRNTLFNLSN [SNAP91]
2.3

* * *

PROTOCOL DETAILS: protein stability index of a GFP-peptide fusion (GPS, HEK-293T) (PSI 1-6); higher = more stable
RECORDED CONDITIONS: treatment: DMSO; c terminus: a fixed tail appended
QUANTITY: protein stability index
Answer with a bare number; do not write a unit.

Some entries whose results are on file:
ITEM SEQUENCE	QUANTITATIVE READOUT
AMKITQEPQGLGYWEAWRHHCQGK [SPACA3]	3.05
PLPPPPPAFKSMEVANFYYEADCL [CEBPB]	3.9

From here, focus on the item given below.
// query protein stability index value for entry IDHYVGIARDQTKSIVEKIQAKLP [RTN3]
3.05

* * *

PROTOCOL DETAILS: protein stability index of a GFP-peptide fusion (GPS, HEK-293T) (PSI 1-6); higher = more stable
RECORDED CONDITIONS: treatment: DMSO; c terminus: a fixed tail appended
Cut-off 3 on protein stability index, inclusive. At or above means met; below means not met.

Below are worked cases with known answers.
ITEM SEQUENCE	ASSIGNED LABEL
VWKYFGFDTNAEGCILQWKKIYCR [ZBED1]	not met
SLDGRDPGNGTHGLSPEEKEQLSN [ELOA2]	met

# check: protein stability index of EKILRELSEEEEDEEEEEEEEEEG [KCNA4] is greater than or equal to 3
met

# check: protein stability index of PERLCSGPGIVGNVLVDPSARIGQ [GMPPB] is greater than or equal to 3
met

# check: protein stability index of SPLHAAAEAGHVDICHMLVQFCRL [EHMT1] is greater than or equal to 3
not met

# check: protein stability index of LDLFAMKPPETSVPVVTPTASTAP [SNAP91] is greater than or equal to 3
met

# check: protein stability index of FIYDCDPFTRRYYKEKFGITDLPR [EFHC1] is greater than or equal to 3
not met

# check: protein stability index of GGAICGGPDHRLRLWRLFQTLDVN [SLC25A25] is greater than or equal to 3
not met

# check: protein stability index of SNFETYPENDWDTAAPVPQKDLEI [PRKX] is greater than or equal to 3
met

# check: protein stability index of GNYMEAKSVLIPVYGVSKETFLSF [RHOBTB3] is greater than or equal to 3
not met

# check: protein stability index of LDGKKKGVEPSPSPIKPGDIKRGI [UFD1] is greater than or equal to 3
met

# check: protein stability index of PFTPLHIKVKPKRVGIFLDYEAGT [TRIM39] is greater than or equal to 3
not met

# check: protein stability index of IPRGFPTIDMGPQLKVVERTRTAT [PTPRD] is greater than or equal to 3
met

# check: protein stability index of GPVRPAIPPPLSSVYAWGGGLGTP [NEK8] is greater than or equal to 3
met

# check: protein stability index of DCSDILRLIKELAKYEYMEEQVIL [SAT1] is greater than or equal to 3
not met
